Each recorded value in this set is attributed to ChEMBL document CHEMBL3988442.

Tested on: Wolbachia pipientis
Test: Anti-Wolbachia Cell-Based Screen
Format: functional
Parameters: scale not given: in the data most compounds retested in dose-response had high values
Details: 5 µM
The campaign covered roughly 48,000 compounds. About 13,000 (27%) showed an effect of 50% or more. The list shows a part of the results.
ENDPOINT: Percent Effect (%)

> print(dat)
                                    compound     val
 1  O=C(NCC(O)(c1cccs1)C1CC1)NC1CCCCC1 (configuration not stated)   9.559
 2  CNC(=O)C1(CCCc2ccncc2)CCN1.O=C(O)C(F)(F)F (configuration not stated)   127.6
 3  CCc1nc(CN(C)C(=O)C2CC(=O)N(c3cccc(O)c3)C2)no1 (configuration not stated)   15.35
 4       COc1ccc(NC(=O)CN2CCS(=O)(=O)CC2)cn1  -4.778
 5          Cc1c(C(N)=O)sc2nc(C(F)(F)F)ccc12  -3.926
 6  CN(C)C(=O)C1(CCCc2ccncc2)CCCN1 (configuration not stated)  -8.359
 7  COc1ccc(F)cc1C(=O)N1CCC2(CCC(=O)N(C(C)C)C2)CC1   -13.7
 8  Cc1ccc(C)c(CC(=O)Nc2cccc(C(=O)N(C)C)n2)c1    -5.2
 9  Cn1ncc2c1C(COCC1CC1)CN(Cc1ccsc1)C2 (configuration not stated)   99.94
10  CCN(Cc1cccc(C(=O)Nc2ncc(C)s2)c1)[C@H]1COC[C@@H]1O   -30.5
11            Cc1cc(CNC(=O)N2CCc3ccccc32)on1    8.57
12  CCOCC1CN(Cc2ccsc2)Cc2cnn(C)c21 (configuration not stated)   100.2

* * *

Tested on: Wolbachia pipientis
Test: Anti-Wolbachia Cell-Based Screen
Assay type: functional
Parameters: scale not given: in the data most compounds retested in dose-response had high values
Conditions: 5 µM
The campaign covered roughly 48,000 compounds. About 13,000 (27%) showed an effect of 50% or more. The list shows a part of the results.
Label 1 for high-side Percent Effect (at or above 80%) and 0 for low-side Percent Effect (below it).

> print(dat)
                                    compound  class.name
 1  Cc1nc(N(C)C)nc(-c2cccc(-c3ccn(CCCO)n3)c2)c1C           1
 2  CN(C)c1ccc(-c2cccc(-c3ccn(CCCO)n3)c2)nn1           1
 3  O=C(c1ncc[nH]1)N1CCC(n2cc(-c3cccc(Cl)c3)nn2)CC1           0
 4  CN1C(=O)CO[C@H](c2ccc(NC(=O)c3cccnc3)cc2)[C@H]1CO           0
 5    Cc1cc(C)n(C2CN(C(=O)c3cn4ccsc4n3)C2)n1           0
 6  c1cncc(-c2cccc(-c3ccn(CCN4CCCCC4)n3)c2)c1           0
 7  CC(C)CN1CCCC1c1ccc(C(=O)Nc2cccnc2)s1 (centres undefined)           0
 8  CN1CCCC1c1ccc(C(=O)Nc2c3c(nn2C)CCC3)s1 (centres undefined)           1
 9  COc1ccc(-c2cccc(-c3ccn(CCCN(C)C)n3)c2)nn1           0
10  CNC(=O)c1cn2cc(-c3cccc(Cl)c3)n(CC3CC3)c(=O)c2n1           0
11    O=C1CCNc2ncc(-c3ccc(Cl)cc3)cc2CN1C1CC1           1
12  O=S(=O)(c1ccccc1Cl)N1CCc2nc(C3CCNCC3)ncc2C1           0
13  COc1ccc(-c2cccc(-c3ccn(CCN(C)C)n3)c2)nn1           0
14              Cn1nc2c(c1NC(=O)c1cccs1)CCC2           1
15  Cc1cnc(C)c(-c2cccc(-c3ccn(CCN4CCCC4)n3)c2)n1           0
16     CN(C)CCCn1ccc(-c2cccc(-c3ccccn3)c2)n1           0
17      O=C1CCNc2ncc(-c3ccccc3Cl)cc2CN1C1CC1           0
18       COc1ccc(-c2nnc(CN3CCNC(=O)C3)o2)cc1           0
19  COc1ccc(NC2CCN(C3CC3)C2=O)cn1 (centres undefined)           0
20            O=C(NC1CCN(c2nccs2)CC1)c1cccs1           0
21  Cn1nc2c(c1NC(=O)c1ccc(C3CCCN3C3CCC3)s1)CCC2 (centres undefined)           1
22         O=C(Nc1nnc(N2CCCCC2)[nH]1)c1cccs1           0
23  c1cc(-c2cnccn2)cc(-c2ccn(CCCN3CCCCC3)n2)c1           0
24    O=C1CCNc2ncc(-c3cccc(Cl)c3)cc2CN1C1CC1           1
